Ref: PubChem BioAssay (NCATS)

// reported Potency per item
experiment: Quantitative High-Throughput drug screen in 47 multiple myeloma cell lines against the NCATS MIPE library collection: ARP1_JJKsccF8 cell viability assay (AID 1918928; also: potency is read from the fitted curve at half-maximal effect; nearly all actives have a fitted effect of over 40% in size); settings: ARP1 myeloma cells viability, CellTiter-Glo ATP, 48 h; series mostly up to 45.8 µM
Records with an inconclusive call do not appear. Active and inactive are the calls of the source. Calls follow the shape of the dose curve; as a rule, active = well fitted cell-killing curve with a large enough effect; inconclusive = small, poorly fitted or top-dose-only effect, or effect the other way; inactive = no such curve, though single readings can be large or run the other way.

smiles_input	Potency
Cc1ccc(-c2ncn(-c3ccc(Nc4nccc(-c5cccc(N6CCOCC6)c5)n4)cc3)n2)cn1	166 nM (active)
Cc1nc(N)ncc1-c1nc(N2CCOCC2)c2sc(C(C)(C)O)cc2n1	105 nM (active)
C1=CCOCc2cc(ccc2OCCN2CCCC2)Nc2nccc(n2)-c2cccc(c2)OCC1	1660 nM (active)
CC(C)C[C@H](NC(=O)CNC(=O)c1cc(Cl)ccc1Cl)B(O)O	59 nM (active)
CC1(C)CCC(c2ccc(Cl)cc2)=C(CN2CCN(c3ccc(C(=O)NS(=O)(=O)c4ccc(N[C@H](CCN5CCOCC5)CSc5ccccc5)c(S(=O)(=O)C(F)(F)F)c4)cc3)CC2)C1	13200 nM (active)
Cn1cc(-c2[nH]c3cc(NC(=O)[C@H](N)C4CCCCC4)cc4c3c2C=NNC4=O)cn1	7430 nM (active)
CC[C@H]1CN2CCc3cc(OC)c(OC)cc3[C@H]2C[C@@H]1C[C@@H]1NCCc2cc(OC)c(OC)cc21	187 nM (active)
COC(=O)c1ccc2c(C(=Nc3ccc(N(C)C(=O)CN4CCN(C)CC4)cc3)c3ccccc3)c(O)[nH]c2c1	23500 nM (active)
